target: CB2R (Homo sapiens, UniProt P34972); assay: CB2R MAPK phosphorylation; type: cell-based; design: expressed in transfected cells; host or cells: HEK-293T, transient transfection (PEI)
Sequence (P34972 whole entry): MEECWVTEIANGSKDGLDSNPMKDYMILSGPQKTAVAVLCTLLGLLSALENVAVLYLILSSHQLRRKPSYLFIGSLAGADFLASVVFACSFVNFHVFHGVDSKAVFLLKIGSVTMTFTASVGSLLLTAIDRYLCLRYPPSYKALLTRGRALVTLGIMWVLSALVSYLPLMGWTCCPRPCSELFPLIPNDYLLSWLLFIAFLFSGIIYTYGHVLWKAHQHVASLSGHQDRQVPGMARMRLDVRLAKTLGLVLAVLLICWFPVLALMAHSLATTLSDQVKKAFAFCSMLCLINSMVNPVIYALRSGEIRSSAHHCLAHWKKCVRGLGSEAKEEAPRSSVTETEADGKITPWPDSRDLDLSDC
# pEC50 per record follows
Scale for pEC50: -log10 of concentration given in mol/L; no unit attached.

                                   compound  parameter_measured  result
0  NC(=O)[C@H]1CCCCN1C(=O)c1nn(Cc2ccc(F)cc2)c2ccccc12 [18p]               pEC50    9.40
1  NC(=O)[C@@H]1CCCCN1C(=O)c1cn(CC2CCCCC2)c2ccccc12 [18e]               pEC50   10.05
2  CCCCCn1nc(C(=O)N2CCCC[C@H]2C(=O)OC)c2ccccc21 [16i]               pEC50    9.42
3  CCCCCn1nc(C(=O)N2CCCC[C@@H]2C(=O)OC)c2ccccc21 [16j]               pEC50   10.05

Would you mind telling me what pEC50 value was observed for CCCC(C)(C)c1ccc2c(c1)OC(C)(C)[C@@H]1CC=C(C)C[C@@H]21 [JWH-133, reference compound] ? 8.57

Would you mind telling me what pEC50 value was observed for NC(=O)[C@@H]1CCCCN1C(=O)c1nn(Cc2ccc(F)cc2)c2ccccc12 [18o] ? 10.52

Would you mind telling me what pEC50 value was observed for NC(=O)[C@H]1CCCCN1C(=O)c1cn(CC2CCCCC2)c2ccccc12 [18f] ? 10.15
